- Test system: Hs-578T
- experiment notes: NCI tumour cell line growth inhibition, 48 h
Calls of active or inactive are those of the source. Rule as the data show it: active = GI50 up to about 1.1 µM and inactive = higher.
# output must be one of active, inactive

- CN1COCc2c1ccc1cc3ccc4c(c3nc21)COCN4S(C)(=O)=O: inactive
- CC1=C2CC(C)(C)CC(=O)C2(C)CCC1=O (stereo not drawn): inactive

**Q:** In this assay, the call recorded for CC(=O)Oc1c2oc3ccc(Cl)cc3c(=O)c2c(O)c2ccsc12 was what?
**A:** inactive

**Q:** Same for COc1ccc(NC(=O)NNS(=O)(=O)c2ccc(C)cc2)cc1
**A:** inactive

**Q:** Same for O=C(O)CCC1(CCC(=O)O)CCCCCCCCC(CCC(=O)O)(CCC(=O)O)C(=O)C1=O
**A:** inactive

**Q:** Same for Cc1cc(NC2=NCCO2)c2c(c1C)CCCC2
**A:** inactive

**Q:** Same for CCC/C(Cl)=N/OC(=O)Nc1cccc(F)c1
**A:** inactive

**Q:** Same for COc1cc(/C=N/n2c(-c3ccccc3)n[nH]c2=O)cc(OC)c1OC
**A:** inactive

**Q:** Same for CN(C)CCOc1ccc2[nH]c(C(=O)N3CC(CCl)c4c3cc(N)c3ccccc43)cc2c1 (stereo not drawn)
**A:** active

**Q:** Same for C#CCSC(C=C=C)P(=O)(OC(C)C)OC(C)C (stereo not drawn)
**A:** inactive

**Q:** Same for CN(C)NC1=NS(=O)(=O)c2cc3c(cc2S1)N(N(C)C)C(=O)c1cc2c(cc1N(N(C)C)C3=O)SC(NN(C)C)=NS2(=O)=O
**A:** inactive

**Q:** Same for COC(=O)c1cc2c(cc1CC(Cc1ccc3c(c1)CCCC3)C(=O)OC)CCCC2 (stereo not drawn)
**A:** inactive

**Q:** Same for O=C1Nc2cccc(Cl)c2/C1=C\c1cccnc1
**A:** inactive

**Q:** Same for COc1cc(/C=C2\CCC(C)C3=C2N=c2s/c(=C/c4ccc(Cl)cc4)c(=O)n2C3c2cc(OC)c(OC)c(OC)c2)cc(OC)c1OC (stereo not drawn)
**A:** inactive

* * *

- Test system: NCI-H522
- experiment notes: NCI tumour cell line growth inhibition, 48 h
Activity calls are given as the source filed them. No stated cut-off is given here; in the data, active = GI50 up to about 1.1 µM and inactive = higher.
Form field: GI50 (one value per entry).

* O=C(NCCCCCCCCCCCCNC(=O)Nc1cccc2ccccc12)Nc1cccc2ccccc12 | 13.7 µM (inactive)
* COc1ccccc1-c1cc(O)c2c(C)cc(C)nc2n1 | 43.7 µM (inactive)
* COc1ccc(NC(=O)NNS(=O)(=O)c2ccc(C)cc2)cc1 | 45.1 µM (inactive)
* O=C(N/N=C\c1cccc2ccccc12)Nc1cccc2ccccc12 | 18.6 µM (inactive)

**Q:** Look at this compound and give its reported GI50. CCOC(=O)c1cnc2[nH]c(=O)c3ccccc3n2c1=O
**A:** > 100 µM (inactive)

**Q:** Same for [N-]=[N+]=NCc1cccc(Nc2cc(=O)[nH]c(=O)[nH]2)c1
**A:** > 100 µM (inactive)

**Q:** Same for CCN(CC)CCCOc1cc2c(cc1OC)C(=O)N1CCC[C@H]1C=N2
**A:** 11.4 µM (inactive)

**Q:** Same for NC(=O)CC(/N=C1\C(=O)OC(C(O)CO)\C1=N/C(CC(N)=O)C(=O)O)C(=O)O (configuration not stated)
**A:** > 100 µM (inactive)

**Q:** Same for CCOC(=O)/C(=C/c1cccc(OC)c1)N(CC)CC
**A:** > 100 µM (inactive)

**Q:** Same for Cc1cc(O)nc2c3c(ccc12)OC(C)(C)C=C3
**A:** 6.67 µM (inactive)

* * *

- Tested on: K562
- experiment notes: NCI tumour cell line growth inhibition, 48 h
Calls of active or inactive are those of the source. Rule as the data show it: active = GI50 up to about 1.1 µM and inactive = higher. Non-standard residues stand in square brackets, D forms with d. Residues, ends and D or L forms follow the SMILES beside them. ξ: configuration not given here. *: point of attachment. NMeF = CN[C@@H](Cc1ccccc1)C(=O)O; ξNMeV = CNC(C(=O)O)C(C)C; Boc = CC(C)(C)OC(=O)*; OBn = c1ccc(CO*)cc1
Form field: GI50 (one value per entry).

Example entries begin here.
• CN(CCN1C(=O)c2cccc3cccc(c23)C1=O)CCN1C(=O)c2cccc3cccc(c23)C1=O = 73.1 µM (inactive)
• CC(C)C(C(=O)N1CCC[C@@H]1C(=O)OCc1ccccc1)N(C)C(=O)C(C(C)C)N(C)C(=O)[C@H](Cc1ccccc1)N(C)C(=O)[C@H](NC(=O)OC(C)(C)C)C(C)C (some centres not stated) (Boc-[dV][NMeF][ξNMeV][ξNMeV][dP]-OBn) = 13.7 µM (inactive)
• CC1CC2C(=O)N(c3ccccc3)C(=O)C2c2[nH]c3ccccc3c21 (configuration not stated) = 33 µM (inactive)
• C=C(C)CCOC(c1ccccc1)(c1ccccc1)c1ccccc1 = > 100 µM (inactive)
• C(=N\c1ccc2c(c1)Cc1ccccc1-2)/c1ccccn1 = 30.9 µM (inactive)
• CCC1=CCN(c2cc(C)ccn2)OC1c1ccc(OC)cc1 (configuration not stated) = 34 µM (inactive)

**Q:** Look at this molecule and give its reported GI50. O=C(NCCNCCCNC(=O)c1cc(-c2ccccc2)nc2ccccc12)c1cccc(OCc2ccccc2)c1OCc1ccccc1
**A:** 1.74 µM (inactive)

**Q:** Same for CC1CC2=Nc3ccccc3NC(c3ccccc3)C2=C(O)O1 (configuration not stated)
**A:** > 100 µM (inactive)

* * *

- Tested on: 786-0
- experiment notes: NCI tumour cell line growth inhibition, 48 h
Activity calls are given as the source filed them. No stated cut-off is given here; in the data, active = GI50 up to about 1.1 µM and inactive = higher.
outcome measure: GI50

Example entries begin here.
* O=C1C(c2c(O)[nH]c3ccc([N+](=O)[O-])cc23)=Nc2ccccc21 | 59.8 µM (inactive)
* O=C1N2CCc3c([nH]c4ccccc34)C23CC2CCCCC12S3 (stereo unspecified) | > 100 µM (inactive)
* CCC(=O)NC(Nc1cc(C)on1)(C(F)(F)F)C(F)(F)F | > 100 µM (inactive)
* CCCCCCCCCCCCC/C=C/[C@H]1[C@@H](C(=O)OC)N1[S+]([O-])c1ccc(C)cc1 (stereo partly specified) | > 100 µM (inactive)
* OCCN1CCN2C=C(C3CCCC4N(CCO)CCN34)CCC21 (stereo unspecified) | 41.7 µM (inactive)
* CN(C)CCOc1ccc2[nH]c(C(=O)N3CC(CCl)c4c3cc(N)c3ccccc43)cc2c1 (stereo unspecified) | < 0.01 µM (active)
* N#C/C(=C1\OC(=N)C(c2ccc(Cl)cc2)=C1O)c1ccc(Cl)cc1 | 16 µM (inactive)
* CC[C@@]1(O)C(=O)OCc2c1cc1n(c2=O)Cc2c-1nc1ccccc1c2/C=N\NC(=O)C(N)=O | 0.0705 µM (active)

**Q:** What value of GI50 on 786-0 does COc1ccc2c(c1)CCCc1c-2nc2ccccc2c1N have?
**A:** 6.11 µM (inactive)

**Q:** Same for Cc1ccccc1N(C)S(=O)(=O)c1ccccc1[N+](=O)[O-]
**A:** 87.3 µM (inactive)

**Q:** Same for Brc1ccc(-c2ccc(-c3ccc(-c4ccc(Br)s4)s3)s2)s1
**A:** > 100 µM (inactive)

**Q:** Same for CN(c1nc(=[N+](C)C)ss1)C1CCCCC1
**A:** > 100 µM (inactive)

**Q:** Same for CCOC(=O)C1(Cc2ccccc2)Cc2cc3c(cc2C1=O)CCC3 (stereo unspecified)
**A:** > 100 µM (inactive)

**Q:** Same for O=C(O)C1C(Br)(c2ccccc2)C1(Br)c1ccccc1 (stereo unspecified)
**A:** 32.3 µM (inactive)

**Q:** Same for CCCCCCC/C=C1\CCC(CN(C)C)C1=O (stereo unspecified)
**A:** 1.76 µM (inactive)

**Q:** Same for COc1ccc(NC(=O)NNS(=O)(=O)c2ccc(C)cc2)cc1
**A:** 0.792 µM (active)

**Q:** Same for CCCCC1Cc2cc(O)ccc2-c2nc3cc(O)ccc3n21.CCCCC1Cc2cc(O)ccc2-c2nc3ccc(O)cc3n21 (stereo unspecified)
**A:** 19 µM (inactive)

**Q:** Same for COC(=O)c1c[nH]c2c1-c1cc(C(=O)OCc3ccccc3)n(S(=O)(=O)c3ccc(C)cc3)c1C(=O)C2=O
**A:** 0.22 µM (active)

* * *

- System: HCT-116
- experiment notes: NCI tumour cell line growth inhibition, 48 h
The source made the active and inactive calls. No stated cut-off is given here; in the data, active = GI50 up to about 1.1 µM and inactive = higher.
Form field: GI50 (one value per entry).

• COc1cc(/C=N/n2c(-c3ccccc3)n[nH]c2=O)cc(OC)c1OC = 0.641 µM (active)
• Nc1c2ccccc2nc2ccc(C(=O)Nc3ccc(S(N)(=O)=O)cc3)cc12 = > 100 µM (inactive)
• CSc1nc(NC(=O)O)c(N(C(C)=O)C(=O)O)c(=O)n1C = > 100 µM (inactive)

**Q:** Look at this compound and give its reported GI50. COC(=O)c1c(O)ccc2[nH]c3c(O)c4ccccc4cc3c12
**A:** 16.7 µM (inactive)

**Q:** Same for COC(=O)C1C2CCCN2OC1(C)CO (stereo not drawn)
**A:** > 100 µM (inactive)

**Q:** Same for Clc1cc2n[se]nc2cc1Cl
**A:** > 100 µM (inactive)

**Q:** Same for COC(=O)C1=C(C(=O)OC)C(Cc2ccccc2)(OO)OC1=O (stereo not drawn)
**A:** 3.35 µM (inactive)

**Q:** Same for COc1ccc2c(c1)C(=O)C1(C2)[C@H](c2ccccc2)C2C(=O)c3cc(OC)ccc3C2[C@H]1c1ccccc1 (stereo partly drawn)
**A:** > 100 µM (inactive)
